measured-parameter: melting point

# example entries with known answers
compound | melting point
COc1ccccc1N1CCN(Cc2cc(C)n(-c3ccc(F)cc3F)c2-c2ccccc2)CC1 [compound 56] | 60 to 62 °C
Cc1cc(CN2CCN(c3ccccn3)CC2)c(-c2ccccc2)n1-c1ccccn1 | 135 to 137 °C
Cc1c(CN2CCN(c3ncccn3)CC2)cc(-c2ccc(Cl)cc2)n1-c1ccc(Cl)cc1 [compound 5] | 184 to 186 °C
Cc1cc(CN2CCN(C(c3ccccc3)c3ccccc3)CC2)c(-c2ccc(Cl)cc2)n1-c1ccc(F)cc1F | 76 to 78 °C

In the following, a different compound is considered.
Task: Any idea what its melting point is? The compound is Cc1c(CN2CCN(c3ccccn3)CC2)cc(-c2ccccc2)n1-c1ccc(F)cc1F [compound 54]
Result: 144 to 146 °C

* * *

- System: M. tuberculosis 27294
- experimental-details: In vitro agar dilution assay (MIC), reference strain
- Format: cell-based, Mycobacterium tuberculosis
- experimental-context: Table I
measured-parameter: MIC (μg/ml) against M. tuberculosis-27294 (µg/mL)
Use µg/mL as the unit, but write only the number.

Task: Any idea what its MIC (μg/ml) against M. tuberculosis-27294 is? The compound is Cc1c(CN2CCN(Cc3ccccc3)CC2)cc(-c2ccccc2)n1NC(=O)c1ccncc1 [compound 15]
Result: 0.5

Task: Any idea what its MIC (μg/ml) against M. tuberculosis-27294 is? The compound is CCC(CO)n1c(-c2ccccc2)cc(CN2CCSCC2)c1C (stereo not shown) [compound 91]
Result: 4.0

* * *

- Test system: M. tuberculosis 27294
- experimental-details: In vitro agar dilution assay (MIC), reference strain
- Assay type: cell-based, Mycobacterium tuberculosis
- experimental-context: Table I
Consider the following molecules and their measured MIC (μg/ml) against M. tuberculosis-27294 readings.
Use µg/mL as the unit, but write only the number.

# example entries with known answers
chemical-string | result-value
Cc1c(CN2CCN(c3cccc(C(F)(F)F)c3)CC2)cc(-c2ccc(Cl)cc2)n1NC(=O)c1cnccn1 | 4.0
Cc1cc(CN2CCN(c3ccc(F)cc3)CC2)c(-c2ccccc2)n1NC(=O)c1ccncc1 | 2.0
COc1ccccc1N1CCN(Cc2cc(-c3ccccc3)n(NC(=O)c3cnccn3)c2C)CC1 | 1.0
Cc1cc(CN2CCN(Cc3ccc4c(c3)OCO4)CC2)c(-c2ccccc2)n1NC(=O)c1ccncc1 | 8.0
Cc1cc(CN2CCN(C(c3ccccc3)c3ccccc3)CC2)c(-c2ccccc2)n1NC(=O)c1cnccn1 | 0.5

Task: Any idea what its MIC (μg/ml) against M. tuberculosis-27294 is? The molecule is "Cc1c(CN2CCSCC2)cc(-c2ccccc2)n1NC(=O)c1ccncc1"
Result: 0.5

Task: Any idea what its MIC (μg/ml) against M. tuberculosis-27294 is? The molecule is "Cc1c(CN2CC[S+]([O-])CC2)cc(-c2ccccc2)n1-c1ccccc1"
Result: 8.0

* * *

Consider the following compounds and their measured MIC (μg/ml) against M. tuberculosis-27294 readings.
- System: M. tuberculosis 27294
- experimental-details: In vitro agar dilution assay (MIC), reference strain
- Assay type: cell-based, Mycobacterium tuberculosis
- experimental-context: Table I
Use µg/mL as the unit, but write only the number.

Task: Any idea what its MIC (μg/ml) against M. tuberculosis-27294 is? The compound is "Cc1c(CN2CCN(c3cccc(C(F)(F)F)c3)CC2)cc(-c2ccc(Cl)cc2)n1-c1cccc2ccccc12"
Result: 4.0

Task: Any idea what its MIC (μg/ml) against M. tuberculosis-27294 is? The compound is "Cc1c(CN2CCN(C(c3ccccc3)c3ccccc3)CC2)cc(-c2ccccc2)n1NC(=O)c1cnccn1"
Result: 2.0

Task: Any idea what its MIC (μg/ml) against M. tuberculosis-27294 is? The compound is "Cc1c(CN2CCN(c3ccc(F)cc3)CC2)cc(-c2ccccc2)n1NC(=O)c1cnccn1"
Result: 2.0

Task: Any idea what its MIC (μg/ml) against M. tuberculosis-27294 is? The compound is "Cc1c(CN2CCN(C(=O)c3ccco3)CC2)cc(-c2ccc(Cl)cc2)n1-c1ccc(Cl)cc1"
Result: 4.0

Task: Any idea what its MIC (μg/ml) against M. tuberculosis-27294 is? The compound is "Cc1c(CN2CCN(c3ccccn3)CC2)cc(-c2ccccc2)n1NC(=O)c1cnccn1"
Result: 2.0

Task: Any idea what its MIC (μg/ml) against M. tuberculosis-27294 is? The compound is "Cc1c(CN2CCN(Cc3ccc4c(c3)OCO4)CC2)cc(-c2ccccc2)n1NC(=O)c1ccncc1"
Result: 2.0

Task: Any idea what its MIC (μg/ml) against M. tuberculosis-27294 is? The compound is "Cc1cc(CN2CCN(c3cccc(C(F)(F)F)c3)CC2)c(-c2ccccc2)n1NC(=O)c1cnccn1"
Result: 2.0

Task: Any idea what its MIC (μg/ml) against M. tuberculosis-27294 is? The compound is "Cc1c(CN2CCCC2)cc(-c2ccccc2)n1NC(=O)c1ccncc1"
Result: 16.0

Where these numbers come from: patent US7763602B2
